Cited source for all entries: the supplement of paper PMC10065799

sequences and their reported phosphorylation enrichment
# System: c-Abl (mouse);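 note: 11-residue human phosphosite peptides and single-mutation variants displayed on the E. coli surface, counted by deep sequencing, each peptide's frequency after selection divided by its frequency in the unselected input library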;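 note: frequency after pTyr selection over input frequency; kinase dosed for 20-30% of maximal phosphorylation in three min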
# MEASUREMENT_PROTOCOL: phosphorylation enrichment, bacterial display (enrichment ratio); higher = better substrate or ligand; peptides without Tyr show the background
Just the number, please, no unit after it.

Consider the worked cases shown below.
INSERT INTO results (construct_sequence, experimental_readout, test_result) VALUES
  ('HRGFLYLAIEY [TEK_Y899_Y897F]', 'phosphorylation enrichment', 1.47),
  ('NGVSYYINLCQ [IGF2R_Y2025]', 'phosphorylation enrichment', 0.916),
  ('GYQPDYGQPAG [SYP_Y278]', 'phosphorylation enrichment', 0.556);

Next, consider the following sequence.
Query :: For the sequence shown here, DYLEKYYKFGS [NNMT_Y24] , give the reported phosphorylation enrichment.
Result :: 0.458
